# EXPERIMENTAL_TARGET: NLRP3 (Homo sapiens)
# METHOD: THP-1 cell-based NLRP3 activation assay
# CONDITION: PMA-differentiated THP-1 cells, LPS 100 ng/mL then 10 μM nigericin
METRIC: IC50

>>> observed("CCOc1cc(C(=O)N(C)[C@@H](c2cncc3cn[nH]c23)C2CNC2)ccc1-c1ccccc1")
"1000 to 15000 nM"
>>> observed("CCOc1cc(C(=O)N(C)[C@H](CCN2C[C@@H](F)[C@H](F)C2)c2cncc3cn[nH]c23)ccc1-c1cccc(F)c1")
"< 100 nM"
>>> observed("CCOc1cc(C(=O)N(C)[C@@H](CCN(C)C)c2cncc3cn[nH]c23)ccc1-c1cccc(F)c1")
"< 100 nM"
>>> observed("CCOc1cc(C(=O)N(C)[C@H](CO)c2cnc(C)c3cn[nH]c23)ccc1-c1cc(C)cc(F)c1")
"100 to 500 nM"
>>> observed("CCOc1cc(C(=O)N(Cc2cncc3cn[nH]c23)[C@H]2CC[C@H]2N)ccc1-c1cccc(F)c1")
"100 to 500 nM"
>>> observed("CCOc1cc(C(=O)N(C)[C@H](CCN(C)CCO)c2cncc3cn[nH]c23)ccc1-c1cccc(Cl)c1")
"< 100 nM"
>>> observed("CCOc1cc(C(=O)N(C)[C@@H](c2cncc3cn[nH]c23)C2CN(C)C2)ccc1-c1ccccc1")
"< 100 nM"

* * *

# EXPERIMENTAL_TARGET: NLRP3 (Homo sapiens)
# METHOD: THP-1 cell-based NLRP3 activation assay
# Design: endogenous in cells; host or cells: THP-1 cells (PMA-differentiated, LPS-primed, nigericin-stimulated)
# CONDITION: PMA-differentiated THP-1 cells, LPS 100 ng/mL then 10 μM nigericin
pIC50: −log10 of the molar value.
METRIC: pIC50

>>> observed("CCOc1cc(C(=O)N(C)[C@H](c2cncc3cn[nH]c23)[C@@H]2CCNC2)ccc1-c1cccc(F)c1 (single isomer, unassigned) [Compound 088]")
"6.30 to 7.00"
>>> observed("CCOc1cc(C(=O)N(C)[C@H](CCN(C)C)c2cncc3cn[nH]c23)ccc1C1CCCC1 [Compound 157]")
"> 7.00"
>>> observed("CN(C(=O)c1ccc(-c2cccc(F)c2)c(OC2CC2)c1)[C@H](CCN1CCC1)c1cncc2cn[nH]c12 [Compound 225]")
"> 7.00"
>>> observed("CCOc1cc(C(=O)N(C)[C@H](CCN2CCC(F)(F)C2)c2cncc3cn[nH]c23)ccc1-c1cccc(F)c1 [Compound 100]")
"> 7.00"

* * *

# EXPERIMENTAL_TARGET: NLRP3 (Homo sapiens, UniProt Q96P20)
# Sequence (Q96P20 whole entry): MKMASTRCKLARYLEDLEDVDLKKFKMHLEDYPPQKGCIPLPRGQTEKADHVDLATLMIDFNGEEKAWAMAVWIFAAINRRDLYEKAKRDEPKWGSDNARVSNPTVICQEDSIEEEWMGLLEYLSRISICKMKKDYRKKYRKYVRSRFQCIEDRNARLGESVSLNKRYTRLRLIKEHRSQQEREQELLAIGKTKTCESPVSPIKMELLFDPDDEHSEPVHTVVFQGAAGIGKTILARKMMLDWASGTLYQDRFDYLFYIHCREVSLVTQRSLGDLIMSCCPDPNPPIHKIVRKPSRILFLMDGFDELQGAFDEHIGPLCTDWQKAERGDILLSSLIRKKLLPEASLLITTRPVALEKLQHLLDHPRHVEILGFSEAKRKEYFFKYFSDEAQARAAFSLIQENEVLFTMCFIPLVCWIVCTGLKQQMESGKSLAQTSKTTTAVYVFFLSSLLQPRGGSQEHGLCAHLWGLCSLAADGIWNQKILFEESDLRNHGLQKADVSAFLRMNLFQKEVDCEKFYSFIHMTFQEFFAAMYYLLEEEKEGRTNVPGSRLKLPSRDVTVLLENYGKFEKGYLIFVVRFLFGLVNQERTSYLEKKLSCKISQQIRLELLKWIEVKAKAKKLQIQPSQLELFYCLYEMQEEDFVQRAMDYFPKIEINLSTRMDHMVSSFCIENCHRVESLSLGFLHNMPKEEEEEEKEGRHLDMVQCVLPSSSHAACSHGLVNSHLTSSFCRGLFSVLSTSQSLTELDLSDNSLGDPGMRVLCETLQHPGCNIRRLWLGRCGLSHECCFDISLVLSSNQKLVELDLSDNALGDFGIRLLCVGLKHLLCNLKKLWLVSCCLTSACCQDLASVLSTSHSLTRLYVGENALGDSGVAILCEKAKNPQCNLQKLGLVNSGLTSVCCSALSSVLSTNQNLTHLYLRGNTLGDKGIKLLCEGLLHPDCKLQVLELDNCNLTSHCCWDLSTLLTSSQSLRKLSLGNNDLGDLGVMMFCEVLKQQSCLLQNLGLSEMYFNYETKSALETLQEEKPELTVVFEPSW
# METHOD: THP-1 cell-based NLRP3 activation assay
# CONDITION: PMA-differentiated THP-1 cells, LPS 100 ng/mL then 10 μM nigericin
pIC50: −log10 of the molar value.
Listing: pIC50 of selected molecules
METRIC: pIC50

>>> observed("CCOc1cc(C(=O)N(C)[C@H](CC[N+](C)(C)[O-])c2cccc3cn[nH]c23)ccc1-c1cccc(Cl)c1")
"> 7.00"
>>> observed("CCOc1cc(C(=O)N(Cc2cncc3cn[nH]c23)[C@H]2CC[C@@H]2N)ccc1-c1cccc(Cl)c1")
"6.00 to 6.30"
>>> observed("CCOc1cc(C(=O)N(C)[C@H](CCN(C)C)c2cccc3cn[nH]c23)ccc1-c1cccc(C#N)c1")
"> 7.00"
>>> observed("CN(C(=O)c1ccc(-c2cccc(F)c2)c(OC2CC2)c1)[C@H](CC[N+](C)(C)[O-])c1cncc2cn[nH]c12")
"> 7.00"
>>> observed("CCOc1cc(C(=O)N(C)[C@H](CCN2CCC2)c2cncc3cn[nH]c23)ccc1-c1cccc(F)c1")
"> 7.00"
>>> observed("CCOc1cc(C(=O)N(Cc2cncc3cn[nH]c23)[C@H]2C[C@@H](N(C)C)C2)ccc1-c1ccccc1")
"> 7.00"
>>> observed("CCOc1cc(C(=O)N(C)[C@H](CC[N+]([O-])(CC)CC)c2cncc3cn[nH]c23)ccc1-c1cccc(Cl)c1")
"> 7.00"
